B1: ELF3 (parent)
chain: RLVYKFGKNSSGWKEEEVLQSRN

variants of: B1; assay: protein stability index of a GFP-peptide fusion (GPS, HEK-293T) (PSI 1-6); higher = more stable; conditions: c terminus: native;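 note: lentivirally expressed fusions sorted by FACS into six bins by GFP to DsRed ratio, PSI derived from sequencing read proportions per bin multiplied by bin number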
Classification scheme (protein stability index): A (below 2), B (2 to below 3), C (3 or more)

> print(dat)
    variant.id  label.class
 1         K8V            A
 2        V18S            B
 3         V3F            B
 4        R22I            C
 5         R1M            B
 6        R22T            C
 7        Q20Y            A
 8         F6H            C
 9        S10R            A
10        G12K            A

Query block: Each variant maps to one class by protein stability index. Which class for G12L ?
Result block: C

Query block: Another variant to check: V18F
Result block: A

Query block: Another variant to check: L19M
Result block: B

Query block: Another variant to check: E16K
Result block: B

Query block: Another variant to check: R22A
Result block: B

Query block: Another variant to check: V3P
Result block: B

Query block: Another variant to check: G7N
Result block: B

Query block: Another variant to check: N9L
Result block: B

Query block: Another variant to check: Q20S
Result block: B

Query block: Another variant to check: E17G
Result block: A

Query block: Another variant to check: Y4F
Result block: B

Query block: Another variant to check: W13Q
Result block: C

Query block: Another variant to check: S11K
Result block: A

Query block: Another variant to check: K5I
Result block: A

Query block: Another variant to check: Q20A
Result block: A
